target: human FGFR-1 (Homo sapiens, UniProt P11362); assay: FGFR-1 high ATP kinase assay (TR-FRET); conditions: read-out: FGFR-1 (high ATP) IC50; 2 mM ATP, 15 min pre-incubation with enzyme
Sequence (P11362 22-822 limits assumed): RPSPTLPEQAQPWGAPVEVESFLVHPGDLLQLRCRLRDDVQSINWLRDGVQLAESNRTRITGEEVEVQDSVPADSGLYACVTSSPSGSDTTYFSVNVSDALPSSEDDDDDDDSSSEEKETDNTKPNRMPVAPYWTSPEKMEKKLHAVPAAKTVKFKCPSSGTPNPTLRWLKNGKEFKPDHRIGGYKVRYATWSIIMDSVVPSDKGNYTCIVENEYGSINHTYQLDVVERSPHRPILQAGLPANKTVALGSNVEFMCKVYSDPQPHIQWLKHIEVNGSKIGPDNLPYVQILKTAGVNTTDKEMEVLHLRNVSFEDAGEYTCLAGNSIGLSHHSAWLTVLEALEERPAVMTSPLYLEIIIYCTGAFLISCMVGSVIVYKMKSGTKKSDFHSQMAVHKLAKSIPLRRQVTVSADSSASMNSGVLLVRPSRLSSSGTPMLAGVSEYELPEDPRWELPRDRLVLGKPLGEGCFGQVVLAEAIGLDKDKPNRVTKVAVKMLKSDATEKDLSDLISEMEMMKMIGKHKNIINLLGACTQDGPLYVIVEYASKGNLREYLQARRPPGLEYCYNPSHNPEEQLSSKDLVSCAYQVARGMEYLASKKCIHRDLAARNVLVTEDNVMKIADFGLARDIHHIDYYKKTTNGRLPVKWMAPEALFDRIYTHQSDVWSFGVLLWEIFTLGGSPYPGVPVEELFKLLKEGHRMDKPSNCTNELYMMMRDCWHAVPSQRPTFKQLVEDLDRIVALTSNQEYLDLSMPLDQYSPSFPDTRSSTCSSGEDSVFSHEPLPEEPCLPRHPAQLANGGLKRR
ASSAY_ENDPOINT: IC50 (nM)
The response must be a number in nM with no trailing unit.

Query: Report IC50 for COc1cc(C)cc2cc(-c3cc(CN4CCNCC4)n4ncnc(N)c34)sc12 [Example 2] tested on human FGFR-1 (Homo sapiens, UniProt P11362).
Result: 20.1

---

For reference, pIC50 measured on human FGFR-3 (Homo sapiens (Human)):
// returns pIC50 (minus log10 of molar concentration), number only

Consider the following illustrative entries.
COMPOUND	pIC50
COc1cc(C)cc2cc(-c3cc(CN4CC[C@H](N)C4)n4ncnc(N)c34)sc12	8.13
CNCCOCc1cc(-c2cc3cc(C)cc(OC)c3s2)c2c(N)ncnn12	7.46
CNC(=O)CNCc1cc(-c2cc3cc(C)cc(OC)c3s2)c2c(N)ncnn12	7.20
COc1cc(C)cc2cc(-c3cc(C(=O)N4CCC(N(C)C)C4)n4ncnc(N)c34)sc12 (centres unmarked)	7.44
CCCc1nccn1Cc1cc(-c2cc3cc(C)cc(OC)c3s2)c2c(N)ncnn12	7.18
COc1cc(C)cc2cc(-c3cc(CN4CCC[C@@H](N)C4)n4ncnc(N)c34)sc12	7.73
COc1cc(C)cc2cc(-c3cc(C(=O)N4CCNC(C)(C)C4)n4ncnc(N)c34)sc12	6.94

Next compound, please.
Query: Param item = COCCN(C)Cc1cc(-c2cc3cc(C)cc(OC)c3s2)c2c(N)ncnn12 ; retrieve measured pIC50.
Result: 7.13
